meta.source: the RNAGym collection of RNA variant scans (doi:10.7554/elife.80360)

B1: CPEB3 Ribozyme (parent)
chain: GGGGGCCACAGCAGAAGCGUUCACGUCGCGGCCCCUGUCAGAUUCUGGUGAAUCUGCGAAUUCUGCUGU

variants of: B1; experiment: self-cleavage, relative activity (ratio to wild type); higher = more cleavage; co-transcriptional
Items are presented alongside their recorded self-cleavage.

Example results:
U20G G28U = 0.161
G50U A51C = 0.938
C7G G47U = 0.636

Would you kindly share the measured self-cleavage for G4A U46A ? 0.899
